B1: Twister Ribozyme (parent)
chain: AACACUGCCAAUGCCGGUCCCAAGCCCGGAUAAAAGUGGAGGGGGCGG

variants of: B1; assay: self-cleavage, relative activity (ratio to wild type); higher = more cleavage; co-transcriptional
metric: self-cleavage

>>> print(df.to_string())
    variant_string  endpoint_value
 0        A4C G36A           0.103
 1       C19A A22G          0.0827
 2       G29A U31G           0.926
 3        A2U G39A            0.12
 4       A33C A40C           0.131
 5       A33G G45C           0.545
 6       G38A G39C           0.175
 7       G17A G48A           0.661
 8       G13U U18C          0.0744
 9       A33G G38C           0.878
10            G44U           0.974
11       G16U G43A           0.203
12        C8U C15U           0.768
13        G7U A34C          0.0467
14         C3U C9A           0.147
15       G28A G38U           0.681
16        G7U G48A           0.078
17        A2G G29U           0.344
18       C26U A40U           0.131
19       C14G A30U           0.146
20       A11U C46A            0.93
21       G29A U37C           0.444
22       C15A A30G           0.492
23       C14A A34G            0.88
24       C26U A34C           0.133
